B1: library; a variant is named by its letters at N, in order (parent)
chain: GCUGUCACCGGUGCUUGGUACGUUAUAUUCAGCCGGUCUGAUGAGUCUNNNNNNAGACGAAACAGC

Variants of: B1
experiment: FACS-Seq fitted mean relative fluorescence mCherry/BFP without ligand (log10 relative fluorescence); HEK293T overexpressing SLC46A1; higher = higher reporter protein expression
setup conditions: without (6R,S)-folinic acid; ligand present: no
Exercise: state measured FACS-Seq fitted mean (log10) for each of the variants provided.
Enter the number alone.

QUERY: Entry AUAUAG has what FACS-Seq fitted mean (log10)?
RESULT: 0.309

QUERY: Entry UGAAAU has what FACS-Seq fitted mean (log10)?
RESULT: 0.196

QUERY: Entry ACUCAU has what FACS-Seq fitted mean (log10)?
RESULT: 0.258

QUERY: Entry UAUAAU has what FACS-Seq fitted mean (log10)?
RESULT: 0.283

QUERY: Entry GUAAUC has what FACS-Seq fitted mean (log10)?
RESULT: 0.0594

QUERY: Entry ACAUAA has what FACS-Seq fitted mean (log10)?
RESULT: -0.288

QUERY: Entry AAAUAG has what FACS-Seq fitted mean (log10)?
RESULT: -0.0965

QUERY: Entry UGCUCG has what FACS-Seq fitted mean (log10)?
RESULT: 0.493

QUERY: Entry AAACAA has what FACS-Seq fitted mean (log10)?
RESULT: 0.376

QUERY: Entry UUUUAC has what FACS-Seq fitted mean (log10)?
RESULT: 0.482

QUERY: Entry CAAACC has what FACS-Seq fitted mean (log10)?
RESULT: 0.546
